Reported protein stability index by item:
B1: BTBD10 (parent)
chain: FVYENAKEGARNIRTSERVTLIVD

variants of: B1; assay: protein stability index of a GFP-peptide fusion (GPS, HEK-293T) (PSI 1-6); higher = more stable; settings: c terminus: a fixed tail appended;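 note: lentivirally expressed fusions sorted by FACS into six bins by GFP to DsRed ratio, PSI derived from sequencing read proportions per bin multiplied by bin number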
Kindly provide the number alone.

Sample answers from the record:
# Mutation key, Quantity kind, Result value
data = [
    ("R11T", "protein stability index", 2.19),
    ("A10G", "protein stability index", 2.08),
    ("A6T", "protein stability index", 2.5),
    ("Y3A", "protein stability index", 2.08),
]

Prompt line: Retrieve protein stability index measured for E4V and print it.
Response line: 2.83

Prompt line: Find the measured protein stability index of E4G and report it.
Response line: 1.75

Prompt line: In one line, give reported protein stability index of the entry V19C .
Response line: 2.49

Prompt line: Give the reported protein stability index for this variant. N5P
Response line: 2.52

Prompt line: Quickly give me recorded protein stability index for I22E
Response line: 3

Prompt line: Provide measured protein stability index value, entry: R18V
Response line: 1.69

Prompt line: Kindly indicate its recorded protein stability index. Item: T15V
Response line: 1.75

Source listed as the supplement of paper PMC10567573.
